# Tested on: SUM149PT spheroids with HUVEC/MSC, viability
# ASSAY OVERVIEW: Anticancer human tumor SUM149PT cell line growth inhibition [GQUAD];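 also: spheroids exposed to drugs for seven days before readout; percent viability relative to DMSO vehicle control taken as 100%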
# SETTINGS: second compound 0.0316 µM; first compound 10 µM; hits give low values
// returns label 0 unless viability, T/C is strictly below 90%, in which case label 1

Would you please look over these solved cases?
# COMPOUND, ASSIGNED LABEL
measured = [
    ("C=CC(=O)N1CCN(c2nc(=O)n(-c3c(C)ccnc3C(C)C)c3nc(-c4c(O)cccc4F)c(F)cc23)C(C)C1 (stereo not given) + Cc1[nH]c2ccc(F)cc2c1-c1nc2c3cccnc3c3ncccc3c2[nH]1", "label 0"),
    ("COc1ncnc(C2CC2)c1-c1ncc2cnn(Cc3ccc(-c4nc(C(F)(F)F)cn4C(C)C)cc3)c2n1 + Cc1[nH]c2ccc(F)cc2c1-c1nc2c3cccnc3c3ncccc3c2[nH]1", "label 0"),
    ("O=C(c1cc(Cc2n[nH]c(=O)c3ccccc23)ccc1F)N1CCN(C(=O)C2CC2)CC1 + Cc1cnc(CNC(=O)c2c(=O)c3ccc(N4CCCN(C)CC4)nc3n3c2sc2ccccc23)cn1", "label 1"),
]

Input: Is it true that viability, T/C reported for COc1ccc([C@@H](O)c2cc(-c3ncnc4cc(N5CCOCC5)ccc34)c(F)cc2Cl)nn1 + Cc1[nH]c2ccc(F)cc2c1-c1nc2c3cccnc3c3ncccc3c2[nH]1 is less than 90%?
Output: label 1

Reference source: PubChem BioAssay AID2060484
